Target: Alpha-2A adrenergic receptor (Homo sapiens)
Sequence (P08913 whole entry): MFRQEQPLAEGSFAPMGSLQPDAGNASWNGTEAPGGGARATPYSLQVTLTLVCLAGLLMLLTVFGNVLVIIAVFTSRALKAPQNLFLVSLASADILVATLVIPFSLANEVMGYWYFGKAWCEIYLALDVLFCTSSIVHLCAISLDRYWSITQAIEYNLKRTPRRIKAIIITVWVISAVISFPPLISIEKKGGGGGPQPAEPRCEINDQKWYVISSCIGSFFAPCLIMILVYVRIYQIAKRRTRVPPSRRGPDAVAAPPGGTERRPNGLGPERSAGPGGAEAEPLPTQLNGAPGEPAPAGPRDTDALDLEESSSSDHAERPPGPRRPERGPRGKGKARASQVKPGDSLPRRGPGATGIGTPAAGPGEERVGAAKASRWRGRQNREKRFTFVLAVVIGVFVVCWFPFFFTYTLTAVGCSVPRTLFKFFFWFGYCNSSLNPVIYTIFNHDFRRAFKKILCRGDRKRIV
pKi: −log10 of the molar value. Where a name gives a salt, the structure may show the parent alone.
Parameter pKi: see the listing below.

1) CN(C)CCCN1c2ccccc2CCc2ccc(Cl)cc21 [CLOMIPRAMINE HYDROCHLORIDE]    6.28
2) COc1ccc(C(CN(C)C)C2(O)CCCCC2)cc1 (stereo not drawn)    < 5.00

Shift focus to the following entry.
### Prompt Query: pKi; subject: COc1ccc2c(c1)C(CN(C)C)(C1(O)CCCCC1)C2 (stereo not drawn)
### Response < 5.00
